procedureSummary: chemical genetic growth profiling, strain panel (AID 1159580);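 note: tested at 20 µM; growth read once vehicle control cultures reached saturation at 30 °C; 1 = growth at the plate median or of vehicle wells; lower values mean less growth of the strain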
assayConditions: S. cerevisiae deletion strains, growth OD, locus YER015W, strain faa2
The whole screen tested about 5,500 compounds, of which about 2,000 (36%) were called active. About 18% were inconclusive and are not listed. Cut-off read from the data, not from the text of the source: active = normalized growth mostly below about 0.91 (no sharp cut-off); inconclusive = no clear call, values can overlap the other calls; inactive = mostly above about 0.92. The list shows a part of the results.
The categories you may choose from are active, inactive

Study these solved cases before continuing.
[
  {
    "compound": "COc1ccc(-c2cc(C(F)F)nn2-c2ccc(S(N)(=O)=O)cc2)cc1F",
    "className": "inactive"
  },
  {
    "compound": "O=C(O)CCCCC1SCC2NC(=O)NC21 (configuration not stated)",
    "className": "inactive"
  },
  {
    "compound": "CC12CCC(CC1)C(C)(C)O2",
    "className": "inactive"
  },
  {
    "compound": "CC[C@]12CCCN3CCc4c(n(c5ccccc45)[C@](O)(C(=O)OC)C1)[C@@H]32",
    "className": "inactive"
  },
  {
    "compound": "O=C(O)CNCP(=O)(O)O",
    "className": "inactive"
  },
  {
    "compound": "C#C[C@]1(O)CCC2C3CCc4cc(OC)ccc4C3CC[C@@]21C (some centres not stated)",
    "className": "inactive"
  },
  {
    "compound": "S=c1[nH]c2ccccc2s1",
    "className": "inactive"
  },
  {
    "compound": "C#C[C@]1(O)CCC2C3CCc4cc(O)ccc4C3CC[C@@]21C (some centres not stated)",
    "className": "inactive"
  }
]

How did this test come out for COc1ccc(C[C@H](N)C(=O)N[C@@H]2[C@@H](CO)OC(n3cnc4c(N(C)C)ncnc43)[C@@H]2O)cc1 (some centres not stated) ?
inactive

And the next one, c1cc2c(cc1[C@H]1OC[C@H]3[C@@H]1CO[C@H]3c1ccc3c(c1)OCO3)OCO2 ?
active

And the next one, CCCCC(CC)CN=C(N)NC(N)=NCCCCCCN=C(N)NC(N)=NCC(CC)CCCC (configuration not stated) ?
active

And the next one, O=C(O)CCC(=O)c1ccc(-c2ccccc2)cc1 ?
inactive

And the next one, CC1(C)O[C@@H]2[C@@H](CO[C@@]3(COS(N)(=O)=O)OC(C)(C)O[C@@H]23)O1 ?
inactive

###

procedureSummary: chemical genetic growth profiling, strain panel (AID 1159580);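 note: tested at 20 µM; growth read once vehicle control cultures reached saturation at 30 °C; 1 = growth at the plate median or of vehicle wells; lower values mean less growth of the strain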
assayConditions: S. cerevisiae deletion strains, growth OD, locus YIL147C, strain SLN1, stronger effect = lower value
The whole screen tested about 5,500 compounds, of which about 2,000 (36%) were called active. Not shown: some 18% with an inconclusive outcome. The list shows a part of the results.
assayEndpoint: normalized growth
One number for each entry.

# annotated cases, reported normalized growth shown
[
  {
    "compound": "NC(=NC(=O)c1ccc(Cl)cc1)c1cccs1",
    "normalized growth": 0.956
  },
  {
    "compound": "COc1cc(Cl)c(NS(=O)(=O)c2cc(Br)c(Br)s2)c(OC)c1",
    "normalized growth": 0.961
  },
  {
    "compound": "CCCCCc1ccc(S(=O)(=O)Nc2ccc3c(c2)C(=O)OC3)cc1",
    "normalized growth": 0.983
  },
  {
    "compound": "CCCC1c2ccsc2CCN1C(=S)Nc1ccc(Cl)cc1Cl (configuration not stated)",
    "normalized growth": 0.973
  },
  {
    "compound": "CC(C)(O)C#Cc1ccc(/C=N\\Nc2ccccc2)cc1",
    "normalized growth": 0.954
  },
  {
    "compound": "CC(C)(O)C#Cc1ccc(/C=N\\Nc2c(Cl)cc(Cl)cc2Cl)cc1",
    "normalized growth": 0.973
  }
]

Would you mind giving normalized growth for every compound in the list below?
1. O=S(=O)(Nc1cc(C(F)(F)F)ccc1F)c1cc(C(F)(F)F)ccc1Cl
2. Cc1cc(C(=O)O/N=C(/N)c2ccc(C(C)(C)C)cc2)no1

1: 0.95; 2: 0.982
